system: HCC-78; test: relative viability (nuclei count vs DMSO), 5 days (fraction); higher = more cells survive; conditions: first compound 4 µM
Kindly supply the reported relative viability values for the records listed here.

compound | relative viability
Clc1ccc(Nc2nnc(Cc3ccncc3)c3ccccc23)cc1 [Vatalanib] + Cc1nc(Nc2ncc(C(=O)Nc3c(C)cccc3Cl)s2)cc(N2CCN(CCO)CC2)n1 [Dasatinib] (partner 0.075 µM) | 0.383

# per-item lookup of relative viability; items listed below
1. COc1cc(N2CCC(C(N)=O)CC2)ccc1Nc1nc(N)c(Cl)c(Nc2ccccc2S(=O)(=O)C(C)C)n1 [HG-5-88-01] + C[C@@H](Oc1cc(-c2cnn(C3CCNCC3)c2)cnc1N)c1c(Cl)ccc(F)c1Cl [Crizotinib] (partner 1 µM)
2. Clc1ccc(Nc2nnc(Cc3ccncc3)c3ccccc23)cc1 [Vatalanib] + Nc1ncn([C@H]2C[C@H](O)[C@@H](CO)O2)c(=O)n1 [Decitabine] (partner 2 µM)

Outgoing:
[0.275, 0.684]

====

test system: LC-2-ad; assay: relative viability (nuclei count vs DMSO), 5 days (fraction); higher = more cells survive; details: first compound 0.1265 µM
metric_name: relative viability
Numbers only.

compound | relative viability
C[C@@H]1CN(CC(=O)Nc2ccc3c(c2)Cc2cccc(-c4cc(=O)cc(N5CCOCC5)o4)c2S3)C[C@H](C)O1 + CS(=O)(=O)CCNCc1ccc(-c2ccc3ncnc(Nc4ccc(OCc5cccc(F)c5)c(Cl)c4)c3c2)o1 [Lapatinib] (partner 2 µM) | 0.928

Okay, next one:
Incoming: Would you mind telling me what relative viability value was observed for Clc1ccc(Nc2nnc(Cc3ccncc3)c3ccccc23)cc1 [Vatalanib] + Nc1nc2[nH]cc(CCc3ccc(C(=O)N[C@@H](CCC(=O)O)C(=O)O)cc3)c2c(=O)[nH]1 [Pemetrexed] (partner 0.2 µM) ?
Outgoing: 0.27

====

Kindly supply the reported relative viability values for the records listed here.
system: NCI-H1623; test: relative viability (nuclei count vs DMSO), 5 days (fraction); higher = more cells survive; details: first compound 0.1265 µM
One number for each entry.

compound | assayed_target | relative viability
Clc1ccc(Nc2nnc(Cc3ccncc3)c3ccccc23)cc1 [Vatalanib] + N=C(N)NC(=N)NCCc1ccccc1 [Phenformin] (partner 250 µM) | NCI-H1623 | 0.577

# per-item lookup of relative viability; items listed below
1. COc1cc(N2CCC(C(N)=O)CC2)ccc1Nc1nc(N)c(Cl)c(Nc2ccccc2S(=O)(=O)C(C)C)n1 [HG-5-88-01] + Cc1cc(Nc2cc(N3CCN(C)CC3)nc(Sc3ccc(NC(=O)C4CC4)cc3)n2)n[nH]1 [Tozasertib] (partner 0.1 µM)
2. C[C@@H]1CN(CC(=O)Nc2ccc3c(c2)Cc2cccc(-c4cc(=O)cc(N5CCOCC5)o4)c2S3)C[C@H](C)O1 + CCNC(=O)c1noc(-c2cc(C(C)C)c(O)cc2O)c1-c1ccc(CN2CCOCC2)cc1 [Luminespib] (partner 0.01 µM)
3. C[C@@H]1CN(CC(=O)Nc2ccc3c(c2)Cc2cccc(-c4cc(=O)cc(N5CCOCC5)o4)c2S3)C[C@H](C)O1 + N=C(N)NC(=N)NCCc1ccccc1 [Phenformin] (partner 250 µM)

Outgoing:
[0.449, 0.473, 0.617]

====

test system: IA-LM; experiment: relative viability (nuclei count vs DMSO), 5 days (fraction); higher = more cells survive; conditions: first compound 4 µM
metric_name: relative viability
Numbers only.

# per-item lookup of relative viability; items listed below
1. COc1cc(N2CCC(C(N)=O)CC2)ccc1Nc1nc(N)c(Cl)c(Nc2ccccc2S(=O)(=O)C(C)C)n1 [HG-5-88-01] + CC1(C)CCC(c2ccc(Cl)cc2)=C(CN2CCN(c3ccc(C(=O)NS(=O)(=O)c4ccc(N[C@H](CCN5CCOCC5)CSc5ccccc5)c(S(=O)(=O)C(F)(F)F)c4)cc3)CC2)C1 [Navitoclax] (partner 0.5 µM)
2. COc1cc(N2CCC(C(N)=O)CC2)ccc1Nc1nc(N)c(Cl)c(Nc2ccccc2S(=O)(=O)C(C)C)n1 [HG-5-88-01] + C[C@]1(O)C[C@@H](c2nc(-c3ccc4ccc(-c5ccccc5)nc4c3)c3c(N)nccn32)C1 [Linsitinib] (partner 1 µM)

Outgoing:
1: 0.802; 2: 0.542

====

Kindly supply the reported relative viability values for the records listed here.
tested on: NCI-H1793; test: relative viability (nuclei count vs DMSO), 5 days (fraction); higher = more cells survive; settings: first compound 0.04 µM
One number for each entry.

Record excerpt, results attached:
compound | relative viability
Clc1ccc(Nc2nnc(Cc3ccncc3)c3ccccc23)cc1 [Vatalanib] + CC(=O)c1c(C)c2cnc(Nc3ccc(N4CCNCC4)cn3)nc2n(C2CCCC2)c1=O [Palbociclib] (partner 0.5 µM) | 0.274
Clc1ccc(Nc2nnc(Cc3ccncc3)c3ccccc23)cc1 [Vatalanib] + Nc1ncn([C@H]2C[C@H](O)[C@@H](CO)O2)c(=O)n1 [Decitabine] (partner 2 µM) | 0.374
C[C@@H]1CN(CC(=O)Nc2ccc3c(c2)Cc2cccc(-c4cc(=O)cc(N5CCOCC5)o4)c2S3)C[C@H](C)O1 + CC(=O)c1c(C)c2cnc(Nc3ccc(N4CCNCC4)cn3)nc2n(C2CCCC2)c1=O [Palbociclib] (partner 0.5 µM) | 0.297

# per-item lookup of relative viability; items listed below
1. Clc1ccc(Nc2nnc(Cc3ccncc3)c3ccccc23)cc1 [Vatalanib] + C[C@]1(O)C[C@@H](c2nc(-c3ccc4ccc(-c5ccccc5)nc4c3)c3c(N)nccn32)C1 [Linsitinib] (partner 1 µM)
2. C[C@@H]1CN(CC(=O)Nc2ccc3c(c2)Cc2cccc(-c4cc(=O)cc(N5CCOCC5)o4)c2S3)C[C@H](C)O1 + NC(=O)Nc1cc(-c2cccc(F)c2)sc1C(=O)N[C@H]1CCCNC1 [AZD7762] (partner 0.2 µM)
3. COc1cc(N2CCC(C(N)=O)CC2)ccc1Nc1nc(N)c(Cl)c(Nc2ccccc2S(=O)(=O)C(C)C)n1 [HG-5-88-01] + CC(=O)c1c(C)c2cnc(Nc3ccc(N4CCNCC4)cn3)nc2n(C2CCCC2)c1=O [Palbociclib] (partner 0.5 µM)
4. C[C@@H]1CN(CC(=O)Nc2ccc3c(c2)Cc2cccc(-c4cc(=O)cc(N5CCOCC5)o4)c2S3)C[C@H](C)O1 + Nc1ncn([C@H]2C[C@H](O)[C@@H](CO)O2)c(=O)n1 [Decitabine] (partner 2 µM)
5. Clc1ccc(Nc2nnc(Cc3ccncc3)c3ccccc23)cc1 [Vatalanib] + O=C(c1cc(Cc2n[nH]c(=O)c3ccccc23)ccc1F)N1CCN(C(=O)C2CC2)CC1 [Olaparib] (partner 8 µM)
6. C[C@@H]1CN(CC(=O)Nc2ccc3c(c2)Cc2cccc(-c4cc(=O)cc(N5CCOCC5)o4)c2S3)C[C@H](C)O1 + N=C(N)NC(=N)NCCc1ccccc1 [Phenformin] (partner 250 µM)

Outgoing:
0.857
0.588
0.301
0.536
0.871
0.347

====

test system: NCI-H520; experiment: relative viability (nuclei count vs DMSO), 5 days (fraction); higher = more cells survive; details: first compound 0.03162 µM
metric_name: relative viability
One number for each entry.

Record excerpt, results attached:
molecule | assayed_target | measured_number
CC(C)Oc1cc(Nc2nc(N[C@@H](C)c3ccc(F)cn3)ncc2Cl)n[nH]1 [AZ23] + CC(=O)Nc1cccc(-n2c(=O)n(C3CC3)c(=O)c3c(Nc4ccc(I)cc4F)n(C)c(=O)c(C)c32)c1 [Trametinib] (partner 0.02 µM) | NCI-H520 | 0.707
CC(C)Oc1cc(Nc2nc(N[C@@H](C)c3ccc(F)cn3)ncc2Cl)n[nH]1 [AZ23] + COc1cccc2cc(-c3nc([C@H]4CC[C@H](C(=O)O)CC4)n4ncnc(N)c34)[nH]c12 [OSI-027] (partner 0.5 µM) | NCI-H520 | 0.281

Okay, next one:
Incoming: Would you mind telling me what relative viability value was observed for CC(C)Oc1cc(Nc2nc(N[C@@H](C)c3ccc(F)cn3)ncc2Cl)n[nH]1 [AZ23] + O=C(c1cc(Cc2n[nH]c(=O)c3ccccc23)ccc1F)N1CCN(C(=O)C2CC2)CC1 [Olaparib] (partner 8 µM) ?
Outgoing: 0.328

====

Kindly supply the reported relative viability values for the records listed here.
tested on: NCI-H1755; experiment: relative viability (nuclei count vs DMSO), 5 days (fraction); higher = more cells survive; conditions: first compound 4 µM
Give bare numbers.

# per-item lookup of relative viability; items listed below
1. C[C@@H]1CN(CC(=O)Nc2ccc3c(c2)Cc2cccc(-c4cc(=O)cc(N5CCOCC5)o4)c2S3)C[C@H](C)O1 + Nc1nc2[nH]cc(CCc3ccc(C(=O)N[C@@H](CCC(=O)O)C(=O)O)cc3)c2c(=O)[nH]1 [Pemetrexed] (partner 0.2 µM)
2. Clc1ccc(Nc2nnc(Cc3ccncc3)c3ccccc23)cc1 [Vatalanib] + CS(=O)(=O)CCNCc1ccc(-c2ccc3ncnc(Nc4ccc(OCc5cccc(F)c5)c(Cl)c4)c3c2)o1 [Lapatinib] (partner 2 µM)
3. COc1cc(N2CCC(C(N)=O)CC2)ccc1Nc1nc(N)c(Cl)c(Nc2ccccc2S(=O)(=O)C(C)C)n1 [HG-5-88-01] + COc1cc2c(Oc3ccc(NC(=O)C4(C(=O)Nc5ccc(F)cc5)CC4)cc3F)ccnc2cc1OCCCN1CCOCC1 [Foretinib] (partner 0.25 µM)
4. COc1cc(N2CCC(C(N)=O)CC2)ccc1Nc1nc(N)c(Cl)c(Nc2ccccc2S(=O)(=O)C(C)C)n1 [HG-5-88-01] + CC(=O)Nc1cccc(-n2c(=O)n(C3CC3)c(=O)c3c(Nc4ccc(I)cc4F)n(C)c(=O)c(C)c32)c1 [Trametinib] (partner 0.02 µM)

Outgoing:
[0.47, 0.951, 0.873, 0.792]
